Test: Population pharmacokinetic model (nonlinear mixed-effects modeling) of radotinib plasma concentrations in healthy volunteers and patients with CML-CP
Type: in vivo, human
Settings: male, human, plasma, oral, 400 mg, healthy volunteers; read-out: terminal half-life (t1/2), population estimate (converted)
PROPERTY: half-life (h)
Write it as a number; the unit h goes unstated.

Find the recorded half-life belonging to Cc1cn(-c2cc(NC(=O)c3ccc(C)c(Nc4nccc(-c5cnccn5)n4)c3)cc(C(F)(F)F)c2)cn1 and report it.
17.5

###

Test: Population pharmacokinetic model (nonlinear mixed-effects modeling) of radotinib plasma concentrations in healthy volunteers and patients with CML-CP
Type: in vivo, human
Details: human, plasma, oral, 300 mg, patients with CML-CP; read-out: terminal half-life (t1/2), population estimate (converted)
PROPERTY: half-life (h)
Write it as a number; the unit h goes unstated.

Find the recorded half-life belonging to Cc1cn(-c2cc(NC(=O)c3ccc(C)c(Nc4nccc(-c5cnccn5)n4)c3)cc(C(F)(F)F)c2)cn1 [radotinib] and report it.
28.8

###

Test: Preliminary pharmacokinetic assessment in patients with CML-CP
Type: in vivo
Conditions: human, plasma, oral, 300 mg twice daily, obtained by doubling the preliminary value of AUC0–12h, read-out: AUC0–24h, previously estimated
PROPERTY: AUC(0-t)

Find the recorded AUC(0-t) belonging to Cc1cn(-c2cc(NC(=O)c3ccc(C)c(Nc4nccc(-c5cnccn5)n4)c3)cc(C(F)(F)F)c2)cn1 [radotinib] and report it.
24000 ng·h/mL
